// reported OD450 nm per item
TARGET OR SYSTEM: Human CD79B Protein, His Tag (MALS verified), Cat. No. #CDB-H52H3-1mg, ACRO (human) (UniProt P40259)
Sequence (P40259 29-159 limits assumed): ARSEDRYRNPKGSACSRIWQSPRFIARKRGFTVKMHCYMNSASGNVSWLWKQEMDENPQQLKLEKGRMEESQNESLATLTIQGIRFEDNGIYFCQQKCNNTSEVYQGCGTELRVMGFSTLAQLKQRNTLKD
METHOD: ELISA on coated antigen, anti-myc detection; 200ng antibody added
OUTCOME MEASURE: OD450 nm (OD450)

| BINDER | VALUE UNIT | OBSERVED MEASUREMENT |
| --- | --- | --- |
| anti-CD79B single-domain antibody JYB4 (VHH, Alpaca VHH from a phage library; not shown: His-tag protein at the C-terminal end) VHH: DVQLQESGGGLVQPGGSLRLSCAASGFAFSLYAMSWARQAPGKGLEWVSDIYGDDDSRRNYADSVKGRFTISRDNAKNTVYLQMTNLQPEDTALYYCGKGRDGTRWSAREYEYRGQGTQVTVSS | OD450 | 0.375 |
| anti-CD79B single-domain antibody JYB10 (VHH, Alpaca VHH from a phage library; ELISA detected with an anti-myc antibody; a myc tag is not described; not shown: His-tag protein at the C-terminal end) VHH: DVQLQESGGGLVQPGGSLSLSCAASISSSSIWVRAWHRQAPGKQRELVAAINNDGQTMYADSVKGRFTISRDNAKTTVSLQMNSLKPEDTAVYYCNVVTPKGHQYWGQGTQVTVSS | OD450 | 0.144 |
| anti-CD79B single-domain antibody JYB14 (VHH, Alpaca VHH from a phage library; ELISA detected with an anti-myc antibody; a myc tag is not described; not shown: His-tag protein at the C-terminal end) VHH: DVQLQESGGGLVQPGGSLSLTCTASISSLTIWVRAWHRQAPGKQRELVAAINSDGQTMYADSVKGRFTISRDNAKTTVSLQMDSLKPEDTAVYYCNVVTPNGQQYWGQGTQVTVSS | OD450 | 0.321 |
| anti-CD79B single-domain antibody JYB11 (VHH, Alpaca VHH from a phage library; ELISA detected with an anti-myc antibody; a myc tag is not described; not shown: His-tag protein at the C-terminal end) VHH: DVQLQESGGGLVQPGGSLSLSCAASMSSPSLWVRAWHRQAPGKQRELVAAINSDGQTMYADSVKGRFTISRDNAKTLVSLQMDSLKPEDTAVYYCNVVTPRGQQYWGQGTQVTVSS | OD450 | 0.177 |
| anti-CD79B single-domain antibody JYB8 (VHH, not shown: small tags and cut ends) VHH: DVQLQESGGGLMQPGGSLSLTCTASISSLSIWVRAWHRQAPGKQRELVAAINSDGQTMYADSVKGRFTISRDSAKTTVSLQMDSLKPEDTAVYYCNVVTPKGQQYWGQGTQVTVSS | OD450 | 0.308 |
